Data origin: patent US20120165319A1

# IC50 per record follows
tested on: IL-1β, human peripheral blood mononuclear cells (PBMC); test: PBMC cell assay: IL-1β assay with human PBMC or enriched adherent mononuclear cells, LPS-stimulated; type: cell-based; settings: Homo sapiens, PBMC, * = values obtained upon reassay
Numbers only here, please. The scale is nM.

| Compound | IC50, nM |
| --- | --- |
| O=C[C@H](CC(=O)O)NC(=O)[C@@H]1CCCN2C(=O)CC[C@H](NC(=O)c3ccc4nc[nH]c4c3)C(=O)N12 | 1600 |

input: Returns the measured IC50 for the input compound. Input: `O=C[C@H](CC(=O)O)NC(=O)[C@@H]1CCCN2C(=O)CC[C@H](NC(=O)c3nccc4ccccc34)C(=O)N12`
output: 580

input: What do you have for `O=C[C@H](CC(=O)O)NC(=O)[C@@H]1CCCN2C(=O)CC[C@H](NC(=O)c3ccc(OCc4ccccc4)cc3)C(=O)N12` ?
output: 1200

input: Moving on to the next compound: `O=C[C@H](CC(=O)O)NC(=O)[C@@H]1CCCN2C(=O)CCN(NC(=O)c3ccc4c(c3)OCO4)C(=O)N12`
output: 2500

input: Moving on to `O=C[C@H](CC(=O)O)NC(=O)[C@@H]1CCCN2C(=O)CC[C@H](NC(=O)c3ccc(F)c(F)c3)C(=O)N12`
output: 2900

input: Now this one: `O=C[C@H](CC(=O)O)NC(=O)[C@@H]1CCCN2C(=O)CC[C@H](NC(=O)/C=C/c3ccccc3)C(=O)N12`
output: 1350

input: What would you report for `O=C[C@H](CC(=O)O)NC(=O)[C@@H]1CCCN2C(=O)CC[C@H](NC(=O)c3cnc4ccccc4c3)C(=O)N12` ?
output: 2700

input: Now this one: COC(=O)N1C[C@H](NC(=O)c2ccccc2)C(=O)N(CC(=O)N[C@H](C=O)CC(=O)O)c2ccccc21 [Compound 605j]
output: 8750

input: Do the same for O=C(O)C[C@H](NC(=O)[C@@H]1CCCN2C(=O)CC[C@H](NC(=O)c3ccccc3)C(=O)N12)C(=O)c1nc2cc(Cl)cc(Cl)c2o1 [Compound 223e] please
output: 3000

input: And the next one, `COCC(=O)N1C[C@H](NC(=O)c2cccc3ccccc23)C(=O)N(CC(=O)N[C@H](C=O)CC(=O)O)c2ccccc21` ?
output: 2000

input: One more compound: O=C1C[C@H](NC(=O)[C@@H]2CCCN3C(=O)CC[C@H](NC(=O)c4ccccc4)C(=O)N23)C(OCc2ccccc2)O1 (stereo partly shown) [Compound 213e]
output: 900

input: Then `O=C[C@H](CC(=O)O)NC(=O)[C@@H]1CCCN2C(=O)CC[C@H](NC(=O)c3ccc4c(c3)OCO4)C(=O)N12` ?
output: 990
